- ASSAY NOTES: method code SF, from DOI: 10.1021/js960111p, PMID: 9002468
- REPORTED CONDITIONS: pH 12.0
Give measured logD for each item. Keep answers brief.
The answer should be written as a number, with no unit following it.

Data request, read-out logD, for c1ccc2c3c([nH]c2c1)CNCC3 1.98

I have this molecule here, Cc1nccc2c3ccccc3n(C)c12 , and I need its recorded logD. 3.01

For the molecule NCCc1c[nH]c2ccccc12 , what logD is on record? 1.35

So what does the record say about logD for CC1NCCc2c1[nH]c1ccc([N+](=O)[O-])cc21 (stereo unspecified) ? 2.07

Param item = COc1ccc2c3c([nH]c2c1)C(C)NCC3 (stereo unspecified) ; retrieve measured logD. 1.37

// returns reported logD for input CC1NCCc2c1[nH]c1ccc(Cl)cc21 (stereo unspecified) 2.3

If you can, please state the reported logD value of c1ccc2c(c1)[nH]c1cnccc12 . 2.65

What value of measured logD is listed for Cn1c2ccccc2c2ccccc21 ? 3.99

Name the reported logD value associated with the molecule COc1ccc2[nH]c3c(c2c1)CCNC3C (stereo unspecified) 1.15

I would be grateful if you could share the reported logD for Cc1nccc2c1[nH]c1ccccc12 . 2.89

Requested read-out: logD. Entry: CC1NCCc2c1[nH]c1ccccc21 (stereo unspecified) 2.06

----------
- ASSAY NOTES: method code SF, from DOI: 10.1021/js960111p, PMID: 9002468
Answer each item with its documented logP.

Fill blank: measured logP of the compound Oc1ccc2[nH]ccc2c1 is ____. 1.29

Entry COc1ccc2[nH]ccc2c1 : reported logP = ? 2.08

Any idea what its logP is? The compound is c1ccc2c3c([nH]c2c1)CCCC3 3

Query: logP; subject: Cn1ccc2ccccc21 2.55

Param item = Clc1ccc2[nH]ccc2c1 ; retrieve measured logP. 2.93

Which value of logP has been reported for Cc1ccc2[nH]ccc2c1 in the records? 2.67

Field request: logP | item: Cc1ccc2[nH]c(C)cc2c1 3.02
